experiment: Quantitative High-Throughput drug screen in 47 multiple myeloma cell lines against the NCATS MIPE library collection: U266_ATCC cell viability assay (AID 1919864); conditions: U266 myeloma viability, CellTiter-Glo ATP luminescence, 48 h; series mostly up to 45.8 µM; also: nearly all actives have a fitted effect of over 35% in size
Records with an inconclusive call do not appear. Active and inactive are the calls of the source. Calls follow the shape of the dose curve; as a rule, active = well fitted cell-killing curve with a large enough effect; inconclusive = small, poorly fitted or top-dose-only effect, or effect the other way; inactive = no such curve, though single readings can be large or run the other way.
Outcomes: 1 (active), -1 (inactive)

compound="CC1CCC(C(=O)N(c2cc(C#CC(C)(C)C)sc2C(=O)O)C2CCC(O)CC2)CC1 (stereo not given)" group=-1
compound=Clc1cc(Cl)cc(CNc2ncncc2-c2ccc3c(c2)OCO3)c1 group=-1
compound="Clc1ccc(CCC(Cn2ccnc2)Sc2c(Cl)cccc2Cl)cc1 (stereo not given)" group=-1
compound=NC(=O)c1ccc2nc(-c3ccc(Oc4ccc(Cl)cc4)cc3)[nH]c2c1 group=-1
compound=Cc1ccc(F)c(NC(=O)Nc2ccc(-c3cccc4[nH]nc(N)c34)cc2)c1 group=1
compound="O=c1c(-c2ccc(O)cc2)coc2cc(OC3O[C@H](CO)[C@H](O)[C@H](O)[C@H]3O)cc(O)c12 (stereo not given in full)" group=1
compound=CCCCCN(C)CCC(O)(P(=O)(O)O)P(=O)(O)O group=-1
compound=CCS(=O)(=O)N1CC(CC#N)(n2cc(-c3ncnc4[nH]ccc34)cn2)C1 group=1
compound="CNC1CCC(N(Cc2cccc(-c3ccncc3)c2)C(=O)c2sc3c(F)ccc(F)c3c2Cl)CC1 (stereo not given)" group=1
compound=C[C@H]1[C@H](NC(=O)C(=NOC(C)(C)C(=O)O)c2csc(N)n2)C(=O)N1S(=O)(=O)O group=1

====

assay: Quantitative High-Throughput drug screen in 47 multiple myeloma cell lines against the NCATS MIPE library collection: KMS34_JCRB cell viability assay (AID 1918985); settings: KMS34 myeloma viability, CellTiter-Glo ATP luminescence, 48 h; series mostly up to 45.8 µM; also: nearly all actives have a fitted effect of over 40% in size
Records with an inconclusive call do not appear. Calls of active or inactive are those of the source. Calls come from the whole dose curve; as a rule, active = well fitted cell-killing curve with a large enough effect; inconclusive = small, poorly fitted or top-dose-only effect, or effect the other way; inactive = no such curve, though single readings can be large or run the other way.
Outcomes: YES (active), NO (inactive)

compound=C[C@]12CC[C@@H]3c4ccc(O)cc4CC[C@H]3[C@H]1C[C@@H](O)[C@H]2O group=NO
compound=CCn1cc(C(=O)O)c(=O)c2ccc(C)nc21 group=NO
compound=C[C@H]1[C@H](NC(=O)C(=NOC(C)(C)C(=O)O)c2csc(N)n2)C(=O)N1S(=O)(=O)O group=NO
compound=N[C@H](CSC(c1ccccc1)(c1ccccc1)c1ccccc1)C(=O)O group=YES
compound=CC=C(C)C(=O)O[C@H]1C(C)=C[C@]23C(=O)[C@@H](C=C(CO)[C@@H](O)[C@]12O)[C@H]1[C@@H](C[C@H]3C)C1(C)C group=YES
compound=CC1(C)CCC[C@@]2(C)[C@@H]1CC[C@@]1(C)OC(=O)C[C@H]21 group=NO
compound=N#C[C@H]1C[C@H]2C[C@@H]2N1C(=O)[C@@H](N)C12CC3CC(CC(O)(C3)C1)C2 group=NO
compound="Cc1ccc(C(C)(O)c2nc3ccccc3s2)c(C)c1 (configuration not stated)" group=NO
compound="O=C(O)C(O)Cc1ccc(O)c(O)c1 (configuration not stated)" group=YES
compound=CCOc1ccc(Nc2nc(-c3c(C)nc4ccccn34)cs2)cc1 group=YES
compound=CCCCCN(C)CCC(O)(P(=O)(O)O)P(=O)(O)O group=NO
compound=CC(=O)Nc1ccc([C@H](C)C(=O)Nc2ncc(C(C)C)s2)cc1 group=YES

FYI, the data here is from PubChem BioAssay (NCATS).
